target: furin, P09958; experiment: furin cleavage Z-score vs untreated control; higher = more cleavage, active = 3.5 or more, inactive = 1 or less, 8 variable residues between constant flanks; conditions: 7.5 min;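 also: purified furin at 1:10 enzyme:substrate in 50 mM HEPES pH 7.5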
Sequence (P09958 whole entry): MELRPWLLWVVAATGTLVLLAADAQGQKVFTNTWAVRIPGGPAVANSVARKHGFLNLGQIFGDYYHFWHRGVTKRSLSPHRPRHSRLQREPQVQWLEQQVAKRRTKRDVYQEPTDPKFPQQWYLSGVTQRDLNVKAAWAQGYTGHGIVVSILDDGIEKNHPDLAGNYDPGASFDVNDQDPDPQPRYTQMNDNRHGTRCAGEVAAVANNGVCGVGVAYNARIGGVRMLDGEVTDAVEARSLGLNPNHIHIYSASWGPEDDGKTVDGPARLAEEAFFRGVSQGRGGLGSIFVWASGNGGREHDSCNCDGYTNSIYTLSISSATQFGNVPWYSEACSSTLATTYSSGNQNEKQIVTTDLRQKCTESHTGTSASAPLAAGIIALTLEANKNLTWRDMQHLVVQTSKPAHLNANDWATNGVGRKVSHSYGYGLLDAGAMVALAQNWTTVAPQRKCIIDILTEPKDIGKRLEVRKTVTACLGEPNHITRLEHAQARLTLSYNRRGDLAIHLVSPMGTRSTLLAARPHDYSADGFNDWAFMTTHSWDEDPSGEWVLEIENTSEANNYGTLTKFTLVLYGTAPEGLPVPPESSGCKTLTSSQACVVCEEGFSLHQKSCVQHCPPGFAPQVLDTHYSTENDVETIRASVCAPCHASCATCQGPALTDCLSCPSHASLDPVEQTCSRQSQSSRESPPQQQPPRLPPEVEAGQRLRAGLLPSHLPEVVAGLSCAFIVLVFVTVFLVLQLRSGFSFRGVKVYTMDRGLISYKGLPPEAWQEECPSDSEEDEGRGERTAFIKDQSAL
The list shows a part of the results. The hit rate among all sequences tested is not known here.
Outcome codes: active, inactive

{"columns": ["seq.string", "class"],
 "data": [
  ["CAELQRQKRSAGNASASA [FS-762]", "active"],
  ["CARKKRKPEEAGNASASA [FS-3192]", "inactive"],
  ["CARKKRLISYAGNASASA [FS-2965]", "inactive"],
  ["CAPVVTSTWVAGNASASA [HC2159]", "inactive"],
  ["CARKKRKIKEAGNASASA [FS-3191]", "inactive"],
  ["CARKKRMAKYAGNASASA [FS-2966]", "active"]
]}
